So I've got a bunch of substances here, and I need their Teststerone level in Blood values.
Test: Blood testosterone level decreasing effect in mature male rat (2 mM peptide solution, ALZET osmotic pump)
Type: in vivo
Conditions: 2 mM peptide solution in distilled water, ALZET osmotic pump s.c., 6 days, Tables 28 and 29
Protocol: This peptide solution was filled in 5 ALZET osmotic pumps (Model 2001, 0.2 ml in volume, release rate: 0.001 ml/hr, DURECT Corporation). […] A mean value of the testosterone levels from 5 rats receiving the peptide was calculated and a relative value (percent) of the mean value to a mean value from 5 rats receiving distilled water.
Numbers only, in %.

# count of solved cases: 4
• 3-Phenylpropionyl-Asn-Thr-Phe-AzaGly-Leu-Arg(Me)-Trp-NH2 [Compound No. 505] = 40
• 3-Phenylpropionyl-Asn-Ser-Phe-AzaGly-Leu-Arg(Me)-Trp-NH2 [Compound No. 499] = 2
• D-Tyr-D-Pya(4)-Asn-Ser-Cha-Gly-Leu-Arg(Me)-Trp-NH2 [Compound No. 496] = 3
• D-Tyr-D-Pya(4)-Asn-Val-Phe-AzaGly-Leu-Arg(Me)-Trp-NH2 [Compound No. 515] = 2

Next:
Q: Report Teststerone level in Blood for H-YNWNSFGLRW-NH2 [Compound No. 134] please.
Ans: 50
